Test system: CCRF-CEM leukemia
Experiment: NCI-60 one-dose screen, 48 h
Condition info: 10 µM unless noted
Compounds without any hit were thinned out: in the full panel of roughly 83,000, 20% have a hit. Calls of active or inactive are those of the source. The calls were made as follows: active = growth percent below 10; inactive = the rest.
Hello, when you answer, please use one of the following outcomes: active, inactive

# lookup: test call for CNCCCC12CCC(c3ccccc31)c1ccccc12
inactive

# lookup: test call for Cc1ccc2c(-c3cc(-c4ccccc4)nc(N)c3C#N)cc(=O)oc2c1
inactive

# lookup: test call for O=c1c2cc(F)cc(Cl)c2sc2c(NCCCNCCO)nc3ccccc3c12
inactive

# lookup: test call for C#Cc1cccc(NC(=O)c2ccc(NC(=O)C=C)cc2)c1
inactive

# lookup: test call for NCCNc1nc2ccccc2c2c(=O)c3cc(F)ccc3sc12
inactive

# lookup: test call for COc1ccc(-c2cc(-c3ccc(Cl)cc3)c(C#N)c(=O)n2CCCCCC(=O)Nc2ccccc2N)cc1
inactive

# lookup: test call for COc1ccc(OC)c(/C=C/C(=O)N/N=C/c2ccc(Cl)cc2)c1
inactive

# lookup: test call for O=c1ccc(N=Nc2ccccc2)ccc1Cl
inactive

# lookup: test call for CCCCC[C@H](O)C/C=C1/C(=O)C=C[C@@H]1C/C=C\CCCC(=O)O
inactive

# lookup: test call for CNCCCNc1nc2ccccc2c2c(=O)c3cc(F)ccc3sc12
active
